So I've got a bunch of molecules here, and I need their Ki values.
- ASSAY SYSTEM: Neuronal acetylcholine receptor subunit alpha-7 (Rattus norvegicus)
- Sequence (Q05941 whole entry): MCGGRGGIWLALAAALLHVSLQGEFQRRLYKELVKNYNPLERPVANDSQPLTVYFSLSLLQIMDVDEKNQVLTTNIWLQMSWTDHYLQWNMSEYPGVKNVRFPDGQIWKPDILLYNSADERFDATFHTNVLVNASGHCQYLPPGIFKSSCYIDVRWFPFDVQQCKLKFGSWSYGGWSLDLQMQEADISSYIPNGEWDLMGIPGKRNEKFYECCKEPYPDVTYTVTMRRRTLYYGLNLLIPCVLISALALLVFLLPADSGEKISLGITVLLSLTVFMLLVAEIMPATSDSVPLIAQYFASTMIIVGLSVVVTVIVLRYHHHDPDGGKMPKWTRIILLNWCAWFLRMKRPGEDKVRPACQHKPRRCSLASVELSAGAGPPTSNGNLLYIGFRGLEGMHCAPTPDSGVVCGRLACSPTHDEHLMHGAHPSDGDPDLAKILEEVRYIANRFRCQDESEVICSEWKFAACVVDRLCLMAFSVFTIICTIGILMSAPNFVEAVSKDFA
- ASSAY OVERVIEW: Displacement of [3H]585539 from alpha7 nAChR in rat brain
- Type: tissue-based

Field: example entries. Status: answers known.
>>> reported("CN(Cc1ccncc1)C1CCN(c2ccc(-c3ccccc3)nn2)C1 (racemic)")
"> 10 nM"
>>> reported("CN(Cc1ccc(Cl)nc1)C1CCN(c2ccc(-c3ccccc3)nn2)C1 (racemic)")
"> 10 nM"
>>> reported("c1ccc(-c2ccc(N3C[C@H]4CN(Cc5ccncc5)C[C@H]4C3)nn2)cc1")
"541 nM"

Give Ki for each listed item.
1. c1ccc(-c2ccc(N3C[C@H]4CN(Cc5ccccn5)C[C@H]4C3)nn2)cc1
2. c1ccc(-c2ccc(N3C[C@H]4CN(Cc5cccnc5)C[C@H]4C3)nn2)cc1
3. CN(Cc1ccccc1)C1CCN(c2ccc(-c3ccccc3)nn2)C1 (racemic)
4. c1ccc(CN2C[C@@H]3CN(c4ccc(-c5ccccc5)nn4)C[C@@H]3C2)cc1
5. Clc1ccc(CN2C[C@@H]3CN(c4ccc(-c5ccccc5)nn4)C[C@@H]3C2)cn1
6. CN(Cc1ccccn1)C1CCN(c2ccc(-c3ccccc3)nn2)C1 (racemic)

Data returned:
1: 533 nM; 2: 3.6 nM; 3: > 10000 nM; 4: 476 nM; 5: 102 nM; 6: > 10000 nM
